The measurements presented in this section are drawn from patent US20210130436A1.

target: T1, human CTLA4 (CTLA-4), full-length, on CHO cells (human, UniProt P16410 36-223); assay: flow cytometry, CHO/CTLA4 cells; MFI relative to WT CD80 ECD-Fc
T1 construct: also called huCTLA4
T1 sequence (P16410 36-223): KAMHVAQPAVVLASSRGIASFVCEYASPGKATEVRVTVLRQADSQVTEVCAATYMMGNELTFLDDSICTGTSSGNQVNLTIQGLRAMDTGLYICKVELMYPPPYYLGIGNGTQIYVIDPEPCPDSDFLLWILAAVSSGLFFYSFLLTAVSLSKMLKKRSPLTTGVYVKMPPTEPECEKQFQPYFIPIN
Okay, here is how we bin by Fold change to WT CD80: bottom end: < 0.7 fold; midrange: ≥ 0.7 fold and < 1 fold; top end: ≥ 1 fold

Which bin, given its Fold change to WT CD80, does variant CD80 IgV-Fc E35D/D46V/L85Q (Fc fusion, not shown: small tags and cut ends; a dimerising Fc or GST) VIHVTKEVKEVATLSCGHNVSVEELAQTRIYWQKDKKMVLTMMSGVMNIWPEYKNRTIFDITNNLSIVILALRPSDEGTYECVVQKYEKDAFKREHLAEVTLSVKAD occupy?
top end

Which class does variant CD80 IgV-Fc M47V/K89N (Fc fusion, not shown: small tags and cut ends; a dimerising Fc or GST) VIHVTKEVKEVATLSCGHNVSVEELAQTRIYWQKEKKMVLTMMSGDVNIWPEYKNRTIFDITNNLSIVILALRPSDEGTYECVVLKYENDAFKREHLAEVTLSVKAD fall in?
midrange

Lab log: variant CD80 IgV-Fc E35D/D46V/M47L/L85Q (Fc fusion, not shown: small tags and cut ends; a dimerising Fc or GST) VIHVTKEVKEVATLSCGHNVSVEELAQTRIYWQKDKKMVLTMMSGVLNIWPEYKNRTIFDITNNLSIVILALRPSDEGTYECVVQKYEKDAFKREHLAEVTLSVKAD — assign Fold change to WT CD80 category
midrange

Returns: class label. Input: variant CD80 IgV-Fc V68M (Fc fusion, not shown: small tags and cut ends; a dimerising Fc or GST) VIHVTKEVKEVATLSCGHNVSVEELAQTRIYWQKEKKMVLTMMSGDMNIWPEYKNRTIFDITNNLSIMILALRPSDEGTYECVVLKYEKDAFKREHLAEVTLSVKAD
bottom end

// bin(item) where item = variant CD80 IgV-Fc E35D/D46V/M47L/V68M/L85Q (Fc fusion, not shown: small tags and cut ends; a dimerising Fc or GST) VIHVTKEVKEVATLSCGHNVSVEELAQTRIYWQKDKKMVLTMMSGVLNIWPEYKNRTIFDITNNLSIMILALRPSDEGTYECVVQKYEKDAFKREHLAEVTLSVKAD
bottom end

Bin this entry: variant CD80 IgV-Fc M47V/N48K (Fc fusion, not shown: small tags and cut ends; a dimerising Fc or GST) VIHVTKEVKEVATLSCGHNVSVEELAQTRIYWQKEKKMVLTMMSGDVKIWPEYKNRTIFDITNNLSIVILALRPSDEGTYECVVLKYEKDAFKREHLAEVTLSVKAD
top end

Into which bin does this binder go? variant CD80 IgV-Fc E35D/V68M/L85Q (Fc fusion, not shown: small tags and cut ends; a dimerising Fc or GST) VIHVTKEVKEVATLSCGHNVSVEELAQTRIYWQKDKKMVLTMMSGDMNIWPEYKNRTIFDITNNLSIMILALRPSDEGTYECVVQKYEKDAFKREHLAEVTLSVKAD
top end

Assign a category based on measured Fold change to WT CD80 for variant CD80 IgV-Fc M47V (Fc fusion, not shown: small tags and cut ends; a dimerising Fc or GST) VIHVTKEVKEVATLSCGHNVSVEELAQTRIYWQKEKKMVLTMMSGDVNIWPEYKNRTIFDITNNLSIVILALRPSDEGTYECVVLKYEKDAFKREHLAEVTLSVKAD and give only the class name.
midrange

Into which category would you place variant CD80 IgV-Fc V68M/L85Q (Fc fusion, not shown: small tags and cut ends; a dimerising Fc or GST) VIHVTKEVKEVATLSCGHNVSVEELAQTRIYWQKEKKMVLTMMSGDMNIWPEYKNRTIFDITNNLSIMILALRPSDEGTYECVVQKYEKDAFKREHLAEVTLSVKAD ?
bottom end

Lab note: sort variant CD80 IgV-Fc E35D (Fc fusion, not shown: small tags and cut ends; a dimerising Fc or GST) VIHVTKEVKEVATLSCGHNVSVEELAQTRIYWQKDKKMVLTMMSGDMNIWPEYKNRTIFDITNNLSIVILALRPSDEGTYECVVLKYEKDAFKREHLAEVTLSVKAD into the matching Fold change to WT CD80 band.
top end
